- System: T1, human D2H transporter receptor domain, amino acid residues 387-685, His-tag fusion protein (human, UniProt Q07837 387-685)
- T1 construct: Expressed as His-tag fusion, purified under denaturing conditions, coated on plates; not shown: poly-histidine tag (pET His-tag) at the NH2-terminal end
- T1 sequence: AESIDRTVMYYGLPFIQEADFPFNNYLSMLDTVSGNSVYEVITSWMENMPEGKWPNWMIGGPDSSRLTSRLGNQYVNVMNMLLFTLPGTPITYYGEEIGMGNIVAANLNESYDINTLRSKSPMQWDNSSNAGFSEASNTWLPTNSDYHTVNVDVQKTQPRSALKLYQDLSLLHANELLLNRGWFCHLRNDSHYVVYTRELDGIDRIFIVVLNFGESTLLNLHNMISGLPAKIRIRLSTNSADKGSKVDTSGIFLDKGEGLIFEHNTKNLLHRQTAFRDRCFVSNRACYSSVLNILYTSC
- Method Description: phage ELISA, coated D2H domain
Provide the reported OD of each item.
Respond numerically; units are OD 650 nm and should not be typed.

Looking up SGFWEFSRGLWDGENRKSVRSGCGFRGSSAQGPCPVTPATIDKH (pIII and flanks not included) [phage DAB30] , I see its OD listed as 0.704

// recorded OD for RWCGADDPCGASRWRGGNSLFGCGLRCSAAQSTPSGRIHSTSTS (pIII and flanks not included) [phage DAB7] : 0.702

Value of measured OD for the entry SKSGEGGDSSRGETGWARVRSHAMTAGRFRWYNQLPSDR (pIII and flanks not included) [phage DAB10] : 0.644

Sure, the documented OD for RMEDIKNSGWRDSCRWGDLRPGCGSRQWYPSNMRSSRDYPAGGH (pIII and flanks not included) [phage DAX24] is 0.591

Notebook: REWRFAGPPLDLWAGPSLPSFNASSHPRALRTYWSQRPR (pIII and flanks not included) [phage DAX23] , OD read as 0.698

OD in this record for RSSANNCEWKSDWMRRACIARYANSSGPARAVDTKAAP (pIII and flanks not included) [phage DAB18] : 0.467

OD recorded for this binder, SHPWYRHWNHGDFSGSGQSRHTPPESPHPGRPNATI (pIII and flanks not included) [phage DAX27] , is 1.58

Record summary for SKWSWSSRWGSPQDKVEKTRAGCGGSPSSTNCHPYTFAPPPQAG (pIII and flanks not included) [phage DAB24] : reported OD = 1.8

# OD (binder: RWCGAELCNSVTKKFRPGWRDHANPSTHHRTPPPSQSSP (pIII and flanks not included) [phage DAB3] ) is 0.406

The binder listed as SESGRCRSVSRWMTTWQTQKGGCGSNVSRGSPLDPSHQTGHATT (pIII and flanks not included) [phage DAX15] has a reported OD of 0.391
